- measurement-target: Rsk1(h) (Homo sapiens, UniProt Q15418)
- Sequence (Q15418 whole entry): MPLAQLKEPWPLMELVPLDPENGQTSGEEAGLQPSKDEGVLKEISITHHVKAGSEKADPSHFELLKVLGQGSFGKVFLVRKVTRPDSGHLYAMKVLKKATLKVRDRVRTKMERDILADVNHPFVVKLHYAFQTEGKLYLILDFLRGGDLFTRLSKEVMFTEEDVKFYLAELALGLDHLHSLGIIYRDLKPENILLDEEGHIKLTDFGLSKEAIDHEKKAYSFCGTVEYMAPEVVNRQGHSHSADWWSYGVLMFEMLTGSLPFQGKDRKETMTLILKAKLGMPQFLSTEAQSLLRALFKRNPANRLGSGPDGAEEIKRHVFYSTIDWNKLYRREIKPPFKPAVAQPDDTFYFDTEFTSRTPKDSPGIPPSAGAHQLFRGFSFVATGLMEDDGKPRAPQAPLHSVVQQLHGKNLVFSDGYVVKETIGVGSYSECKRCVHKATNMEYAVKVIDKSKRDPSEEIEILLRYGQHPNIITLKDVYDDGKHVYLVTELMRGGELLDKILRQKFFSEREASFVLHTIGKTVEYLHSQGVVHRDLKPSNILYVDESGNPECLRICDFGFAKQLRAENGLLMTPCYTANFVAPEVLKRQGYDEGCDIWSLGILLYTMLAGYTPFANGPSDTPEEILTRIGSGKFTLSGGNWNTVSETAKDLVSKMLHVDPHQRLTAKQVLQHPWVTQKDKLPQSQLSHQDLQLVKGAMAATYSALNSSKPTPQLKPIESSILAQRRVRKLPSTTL
- protocol-text: Protein kinase selectivity panel
- Type: biochemical
- applied-conditions: 1.0 μM compound, 10 μM ATP
experimental-endpoint: Activity at Protein Kinase Assays (% of control), Rsk1(h)

- O=C1NC(=O)C2=C1c1cn(c3ccccc13)CCCc1cc(nc(N3CCCC3)c1)CCCn1cc2c2ccccc21 [Cpd 6]: 15 % of control
- CN(C)c1nc2ccc1CCCCn1cc(c3ccccc31)C1=C(C(=O)NC1=O)c1cn(c3ccccc13)CCC2 [Cpd 1]: 39 % of control
- CN(C)c1cc2cc(n1)CCCn1cc(c3ccccc31)C1=C(C(=O)NC1=O)c1cn(c3ccccc13)CCC2 [Cpd 2]: 15 % of control

Query: Activity at Protein Kinase Assays (% of control), Rsk1(h) lookup needed for O=C1NC(=O)C2=C1c1cn(c3ccccc13)CCCc1ccc(c(N3CCCC3)n1)CCCn1cc2c2ccccc21 [Cpd 7] , thanks.
Reply: 85 % of control

* * *

Here the recorded Activity at Protein Kinase Assays (% of control), Abl(m) is given for each entry.
- measurement-target: Abl(m) (Mus musculus, UniProt P00520)
- Sequence (P00520 whole entry): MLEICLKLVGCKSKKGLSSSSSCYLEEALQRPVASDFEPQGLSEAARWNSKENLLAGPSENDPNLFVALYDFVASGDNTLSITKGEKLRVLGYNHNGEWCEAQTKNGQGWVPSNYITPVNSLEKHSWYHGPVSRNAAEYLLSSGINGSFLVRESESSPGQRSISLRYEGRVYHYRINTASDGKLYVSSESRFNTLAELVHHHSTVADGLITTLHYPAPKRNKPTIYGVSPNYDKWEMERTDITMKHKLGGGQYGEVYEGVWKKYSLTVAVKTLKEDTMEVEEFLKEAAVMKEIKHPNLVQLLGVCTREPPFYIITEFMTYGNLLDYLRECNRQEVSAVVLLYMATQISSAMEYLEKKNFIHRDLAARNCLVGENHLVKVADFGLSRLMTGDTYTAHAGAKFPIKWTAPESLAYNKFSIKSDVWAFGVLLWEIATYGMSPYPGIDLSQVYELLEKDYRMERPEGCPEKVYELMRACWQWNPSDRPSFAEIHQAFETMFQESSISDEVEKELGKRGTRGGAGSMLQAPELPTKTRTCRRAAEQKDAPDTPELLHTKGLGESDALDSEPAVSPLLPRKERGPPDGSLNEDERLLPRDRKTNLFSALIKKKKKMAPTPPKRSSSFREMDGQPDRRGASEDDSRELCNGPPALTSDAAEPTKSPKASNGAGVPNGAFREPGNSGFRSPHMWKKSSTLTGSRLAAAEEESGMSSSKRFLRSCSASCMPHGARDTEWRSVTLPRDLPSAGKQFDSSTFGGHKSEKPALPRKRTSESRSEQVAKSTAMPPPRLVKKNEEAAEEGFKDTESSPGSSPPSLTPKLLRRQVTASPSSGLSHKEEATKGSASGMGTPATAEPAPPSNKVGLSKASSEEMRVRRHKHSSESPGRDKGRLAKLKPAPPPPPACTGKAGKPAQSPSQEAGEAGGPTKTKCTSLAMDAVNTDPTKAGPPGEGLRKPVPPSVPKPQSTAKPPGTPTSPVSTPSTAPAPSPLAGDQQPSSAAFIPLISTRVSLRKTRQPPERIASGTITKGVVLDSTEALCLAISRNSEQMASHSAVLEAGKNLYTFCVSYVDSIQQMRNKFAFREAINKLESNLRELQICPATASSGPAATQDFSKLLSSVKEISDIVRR
- protocol-text: Protein kinase selectivity panel
- Type: biochemical
- applied-conditions: 1.0 μM compound, 10 μM ATP

- CN(C)c1nc2ccc1CCCCn1cc(c3ccccc31)C1=C(C(=O)NC1=O)c1cn(c3ccccc13)CCC2: 98 % of control

Query: Quick check: Activity at Protein Kinase Assays (% of control), Abl(m) on Abl(m) (Mus musculus, UniProt P00520), item O=C1NC(=O)C2=C1c1cn(c3ccccc13)CCCc1cc(nc(N3CCCC3)c1)CCCn1cc2c2ccccc21 ?
Reply: 104 % of control

Query: Next entry: O=C1NC(=O)C2=C1c1cn(c3ccccc13)CCCc1ccc(c(N3CCCC3)n1)CCCn1cc2c2ccccc21
Reply: 110 % of control

Query: Input CN(C)c1cc2cc(n1)CCCn1cc(c3ccccc31)C1=C(C(=O)NC1=O)c1cn(c3ccccc13)CCC2
Reply: 108 % of control

* * *

// reported Activity at Protein Kinase Assays (% of control), IKKβ(h) for each item listed
- measurement-target: IKKβ(h) (Homo sapiens, UniProt O14920)
- Sequence (O14920 whole entry): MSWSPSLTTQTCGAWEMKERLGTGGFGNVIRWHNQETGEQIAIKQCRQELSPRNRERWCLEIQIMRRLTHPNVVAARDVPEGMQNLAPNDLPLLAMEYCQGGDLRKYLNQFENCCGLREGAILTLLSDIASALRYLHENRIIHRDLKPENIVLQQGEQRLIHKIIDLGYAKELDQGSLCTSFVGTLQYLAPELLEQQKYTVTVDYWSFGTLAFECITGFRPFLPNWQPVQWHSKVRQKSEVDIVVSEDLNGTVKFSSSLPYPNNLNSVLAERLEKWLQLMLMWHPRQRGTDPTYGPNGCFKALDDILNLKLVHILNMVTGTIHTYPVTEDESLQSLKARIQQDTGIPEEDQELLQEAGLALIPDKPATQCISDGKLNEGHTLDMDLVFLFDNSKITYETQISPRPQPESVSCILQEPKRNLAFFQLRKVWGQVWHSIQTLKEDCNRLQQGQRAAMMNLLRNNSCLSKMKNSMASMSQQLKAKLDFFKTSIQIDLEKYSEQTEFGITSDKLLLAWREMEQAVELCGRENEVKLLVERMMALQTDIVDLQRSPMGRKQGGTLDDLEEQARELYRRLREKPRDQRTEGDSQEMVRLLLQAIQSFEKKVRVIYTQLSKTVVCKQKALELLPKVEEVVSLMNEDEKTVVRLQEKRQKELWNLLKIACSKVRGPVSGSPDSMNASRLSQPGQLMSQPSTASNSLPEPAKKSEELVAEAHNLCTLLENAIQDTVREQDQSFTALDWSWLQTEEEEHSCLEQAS
- protocol-text: Protein kinase selectivity panel
- Assay type: biochemical
- applied-conditions: 1.0 μM compound, 10 μM ATP

Please review the following examples before continuing.
* CN(C)c1cc2cc(n1)CCCn1cc(c3ccccc31)C1=C(C(=O)NC1=O)c1cn(c3ccccc13)CCC2 | 124 % of control
* CN(C)c1nc2ccc1CCCCn1cc(c3ccccc31)C1=C(C(=O)NC1=O)c1cn(c3ccccc13)CCC2 | 128 % of control
* O=C1NC(=O)C2=C1c1cn(c3ccccc13)CCCc1ccc(c(N3CCCC3)n1)CCCn1cc2c2ccccc21 | 130 % of control

Okay, next one:
Query: Item under review: O=C1NC(=O)C2=C1c1cn(c3ccccc13)CCCc1cc(nc(N3CCCC3)c1)CCCn1cc2c2ccccc21 . Reported Activity at Protein Kinase Assays (% of control), IKKβ(h)?
Reply: 125 % of control

* * *

// reported Activity at Protein Kinase Assays (% of control), cSRC(h) for each item listed
- measurement-target: cSRC(h) (Homo sapiens, UniProt P12931)
- protocol-text: Protein kinase selectivity panel
- Assay type: biochemical
- applied-conditions: 1.0 μM compound, 10 μM ATP

Consider the following illustrative entries.
• O=C1NC(=O)C2=C1c1cn(c3ccccc13)CCCc1ccc(c(N3CCCC3)n1)CCCn1cc2c2ccccc21 = 113 % of control
• O=C1NC(=O)C2=C1c1cn(c3ccccc13)CCCc1cc(nc(N3CCCC3)c1)CCCn1cc2c2ccccc21 = 97 % of control
• CN(C)c1cc2cc(n1)CCCn1cc(c3ccccc31)C1=C(C(=O)NC1=O)c1cn(c3ccccc13)CCC2 = 105 % of control

Switching to the query record.
Query: Entry under review: CN(C)c1nc2ccc1CCCCn1cc(c3ccccc31)C1=C(C(=O)NC1=O)c1cn(c3ccccc13)CCC2 . Reported Activity at Protein Kinase Assays (% of control), cSRC(h)?
Reply: 81 % of control

* * *

Documented Activity at Protein Kinase Assays (% of control), Rsk2(h) across a set of compounds
- measurement-target: Rsk2(h) (Homo sapiens, UniProt P51812)
- Sequence (P51812 whole entry): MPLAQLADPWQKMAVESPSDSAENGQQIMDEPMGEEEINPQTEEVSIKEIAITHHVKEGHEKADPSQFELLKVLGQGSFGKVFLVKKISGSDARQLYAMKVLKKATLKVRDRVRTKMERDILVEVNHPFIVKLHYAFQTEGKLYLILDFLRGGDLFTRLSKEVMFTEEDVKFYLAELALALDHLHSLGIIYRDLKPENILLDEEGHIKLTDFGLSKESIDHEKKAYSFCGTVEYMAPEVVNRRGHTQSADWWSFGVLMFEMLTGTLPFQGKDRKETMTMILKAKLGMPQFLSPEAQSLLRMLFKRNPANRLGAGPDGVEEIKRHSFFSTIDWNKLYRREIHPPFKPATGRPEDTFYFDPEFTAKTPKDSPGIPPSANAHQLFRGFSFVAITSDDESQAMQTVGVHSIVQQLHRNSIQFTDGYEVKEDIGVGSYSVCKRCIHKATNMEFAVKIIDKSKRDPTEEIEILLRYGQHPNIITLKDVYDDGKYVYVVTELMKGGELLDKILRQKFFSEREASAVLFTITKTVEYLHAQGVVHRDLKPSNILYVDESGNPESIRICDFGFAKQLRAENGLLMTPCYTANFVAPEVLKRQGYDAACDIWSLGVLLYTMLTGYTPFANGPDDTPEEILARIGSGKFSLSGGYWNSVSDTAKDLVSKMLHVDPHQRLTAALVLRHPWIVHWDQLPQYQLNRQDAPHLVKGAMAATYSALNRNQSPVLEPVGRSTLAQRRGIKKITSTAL
- protocol-text: Protein kinase selectivity panel
- Assay type: biochemical
- applied-conditions: 1.0 μM compound, 10 μM ATP

Query: Which Activity at Protein Kinase Assays (% of control), Rsk2(h) reading was recorded for the compound O=C1NC(=O)C2=C1c1cn(c3ccccc13)CCCc1ccc(c(N3CCCC3)n1)CCCn1cc2c2ccccc21 [Cpd 7] ?
Reply: 63 % of control

Query: How about this compound: CN(C)c1nc2ccc1CCCCn1cc(c3ccccc31)C1=C(C(=O)NC1=O)c1cn(c3ccccc13)CCC2 [Cpd 1]
Reply: 32 % of control

Query: What do you have for O=C1NC(=O)C2=C1c1cn(c3ccccc13)CCCc1cc(nc(N3CCCC3)c1)CCCn1cc2c2ccccc21 [Cpd 6] ?
Reply: 12 % of control

Query: Try CN(C)c1cc2cc(n1)CCCn1cc(c3ccccc31)C1=C(C(=O)NC1=O)c1cn(c3ccccc13)CCC2 [Cpd 2] next.
Reply: 10 % of control

* * *

- measurement-target: MAPK1(h) (Homo sapiens)
- Sequence (P27361 whole entry): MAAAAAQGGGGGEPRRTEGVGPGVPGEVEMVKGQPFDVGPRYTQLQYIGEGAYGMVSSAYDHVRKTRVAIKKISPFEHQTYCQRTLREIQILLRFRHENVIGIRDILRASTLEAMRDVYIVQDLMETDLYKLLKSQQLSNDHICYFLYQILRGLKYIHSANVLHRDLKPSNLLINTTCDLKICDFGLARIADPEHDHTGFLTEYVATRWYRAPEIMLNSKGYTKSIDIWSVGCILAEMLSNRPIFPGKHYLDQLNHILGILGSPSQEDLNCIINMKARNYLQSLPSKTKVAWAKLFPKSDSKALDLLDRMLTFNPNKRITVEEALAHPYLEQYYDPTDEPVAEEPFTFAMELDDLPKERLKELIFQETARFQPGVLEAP
- protocol-text: Protein kinase selectivity panel
- Type: biochemical
- applied-conditions: 1.0 μM compound, 10 μM ATP
Listed here: items and their measured Activity at Protein Kinase Assays (% of control), MAPK1(h).

Known Activity at Protein Kinase Assays (% of control), MAPK1(h) results, listed for orientation:
* CN(C)c1cc2cc(n1)CCCn1cc(c3ccccc31)C1=C(C(=O)NC1=O)c1cn(c3ccccc13)CCC2 | 86 % of control
* O=C1NC(=O)C2=C1c1cn(c3ccccc13)CCCc1ccc(c(N3CCCC3)n1)CCCn1cc2c2ccccc21 | 110 % of control

Query: Field request: Activity at Protein Kinase Assays (% of control), MAPK1(h) | item: O=C1NC(=O)C2=C1c1cn(c3ccccc13)CCCc1cc(nc(N3CCCC3)c1)CCCn1cc2c2ccccc21
Reply: 99 % of control

Query: CN(C)c1nc2ccc1CCCCn1cc(c3ccccc31)C1=C(C(=O)NC1=O)c1cn(c3ccccc13)CCC2 ?
Reply: 97 % of control

* * *

- measurement-target: Fms(h) (Homo sapiens)
- Sequence (P07333 20-972): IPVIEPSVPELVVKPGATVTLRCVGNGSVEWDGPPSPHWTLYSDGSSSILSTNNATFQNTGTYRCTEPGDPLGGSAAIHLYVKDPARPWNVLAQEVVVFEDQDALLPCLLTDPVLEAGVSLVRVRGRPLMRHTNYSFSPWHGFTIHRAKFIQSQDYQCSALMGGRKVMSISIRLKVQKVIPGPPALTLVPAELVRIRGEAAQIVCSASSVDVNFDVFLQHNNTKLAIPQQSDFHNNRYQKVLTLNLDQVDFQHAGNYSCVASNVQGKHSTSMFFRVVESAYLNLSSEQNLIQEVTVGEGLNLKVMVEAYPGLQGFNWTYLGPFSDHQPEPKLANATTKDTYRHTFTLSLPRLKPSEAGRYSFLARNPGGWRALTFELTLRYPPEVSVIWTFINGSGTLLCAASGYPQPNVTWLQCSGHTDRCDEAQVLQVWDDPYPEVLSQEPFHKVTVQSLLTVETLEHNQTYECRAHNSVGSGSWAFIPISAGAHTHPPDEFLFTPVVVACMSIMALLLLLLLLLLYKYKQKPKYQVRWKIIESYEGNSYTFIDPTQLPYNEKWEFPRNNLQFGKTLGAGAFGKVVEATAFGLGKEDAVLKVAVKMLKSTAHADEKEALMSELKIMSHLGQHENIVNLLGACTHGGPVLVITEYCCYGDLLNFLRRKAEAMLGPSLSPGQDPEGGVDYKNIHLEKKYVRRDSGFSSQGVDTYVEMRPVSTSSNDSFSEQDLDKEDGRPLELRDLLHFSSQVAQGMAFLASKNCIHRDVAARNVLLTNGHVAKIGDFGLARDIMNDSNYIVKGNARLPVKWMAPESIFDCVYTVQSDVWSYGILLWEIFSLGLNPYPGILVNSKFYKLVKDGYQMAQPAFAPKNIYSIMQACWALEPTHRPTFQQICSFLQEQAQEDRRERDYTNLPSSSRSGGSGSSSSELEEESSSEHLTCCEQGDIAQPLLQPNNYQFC
- protocol-text: Protein kinase selectivity panel
- Type: biochemical
- applied-conditions: 1.0 μM compound, 10 μM ATP
Overview of recorded Activity at Protein Kinase Assays (% of control), Fms(h) for various compounds

Examples with answers:
* O=C1NC(=O)C2=C1c1cn(c3ccccc13)CCCc1ccc(c(N3CCCC3)n1)CCCn1cc2c2ccccc21 | 106 % of control
* CN(C)c1nc2ccc1CCCCn1cc(c3ccccc31)C1=C(C(=O)NC1=O)c1cn(c3ccccc13)CCC2 | 94 % of control
* CN(C)c1cc2cc(n1)CCCn1cc(c3ccccc31)C1=C(C(=O)NC1=O)c1cn(c3ccccc13)CCC2 | 101 % of control

Query: # query: Activity at Protein Kinase Assays (% of control), Fms(h) of entry O=C1NC(=O)C2=C1c1cn(c3ccccc13)CCCc1cc(nc(N3CCCC3)c1)CCCn1cc2c2ccccc21
Reply: 99 % of control

* * *

- Tested on: CK1(y)
- protocol-text: Protein kinase selectivity panel
- Format: biochemical, yeast
- applied-conditions: 1.0 μM compound, 10 μM ATP
This section presents molecules with their documented Activity at Protein Kinase Assays (% of control), CK1(y) values.

Example entries begin here.
• O=C1NC(=O)C2=C1c1cn(c3ccccc13)CCCc1cc(nc(N3CCCC3)c1)CCCn1cc2c2ccccc21 = 99 % of control
• CN(C)c1nc2ccc1CCCCn1cc(c3ccccc31)C1=C(C(=O)NC1=O)c1cn(c3ccccc13)CCC2 = 91 % of control
• CN(C)c1cc2cc(n1)CCCn1cc(c3ccccc31)C1=C(C(=O)NC1=O)c1cn(c3ccccc13)CCC2 = 98 % of control

Query: Activity at Protein Kinase Assays (% of control), CK1(y) lookup needed for O=C1NC(=O)C2=C1c1cn(c3ccccc13)CCCc1ccc(c(N3CCCC3)n1)CCCn1cc2c2ccccc21 , thanks.
Reply: 98 % of control

* * *

The following compounds are shown together with reported Activity at Protein Kinase Assays (% of control), Abl(T315l)(h) values.
- measurement-target: Abl(T315l)(h) (Homo sapiens, UniProt P00519, T315I)
- protocol-text: Protein kinase selectivity panel
- Assay type: biochemical
- applied-conditions: 1.0 μM compound, 10 μM ATP

• CN(C)c1cc2cc(n1)CCCn1cc(c3ccccc31)C1=C(C(=O)NC1=O)c1cn(c3ccccc13)CCC2 = 79 % of control
• O=C1NC(=O)C2=C1c1cn(c3ccccc13)CCCc1ccc(c(N3CCCC3)n1)CCCn1cc2c2ccccc21 = 103 % of control

Query: Tell me reported Activity at Protein Kinase Assays (% of control), Abl(T315l)(h) for O=C1NC(=O)C2=C1c1cn(c3ccccc13)CCCc1cc(nc(N3CCCC3)c1)CCCn1cc2c2ccccc21 , tested with Abl(T315l)(h) (Homo sapiens, UniProt P00519, T315I).
Reply: 77 % of control

Query: Lookup CN(C)c1nc2ccc1CCCCn1cc(c3ccccc31)C1=C(C(=O)NC1=O)c1cn(c3ccccc13)CCC2
Reply: 100 % of control
